Entry source: PubChem BioAssay

Test: sensitizers of A549 cells to miR-34 induction, primary screen, imaging, A549 dox-inducible miR-34, nuclei and caspase counts (AID 1347080)
Details: A549 miR-34 inducible, Hoechst nuclei count, 48 h; measured here: total cells with miR-34 induction; stronger effect = lower value
So basically: is cell count under 8000? Then class 1. Not under? Then class 0.

Field: example entries. Status: answers known.
>>> category("Oc1ccc2c3c1O[C@H]1c4c(c5ccccc5n4Cc4ccccc4)C[C@@]4(O)C(C2)N(CC2CC2)CC[C@]314")
"class 1"
>>> category("CCCCCCC(=O)O[C@H]1CC[C@H]2[C@@H]3C[C@H](O)C4=CC(=O)CC[C@]4(C)[C@H]3CC[C@]12C")
"class 1"
>>> category("CC1CCCC(O)CCCCCc2cc(O)cc(O)c2C(=O)O1 (configuration not stated)")
"class 0"
>>> category("C=C(C)[C@@H]1CCC(C)=C[C@H]1c1c(O)cc(O)cc1CCCCC")
"class 1"
>>> category("CC(=O)O[C@H]1C[C@H](O[C@H]2[C@@H](O)C[C@H](O[C@H]3[C@@H](O)C[C@H](O[C@H]4CC[C@@]5(C)C(CCC6C5C[C@@H](O)[C@]5(C)[C@@H](C7=CC(=O)OC7)CC[C@]65O)C4)O[C@@H]3C)O[C@@H]2C)O[C@H](C)[C@H]1O[C@@H]1O[C@H](CO)[C@@H](O)[C@H](O)[C@H]1O (some centres not stated)")
"class 1"

Enquiry: Does the reported cell count of CC(=O)OCC1=C(C(=O)O)N2C(=O)[C@@H](N)[C@H]2SC1 stay below 8000?
Return: class 0

Enquiry: What about this compound? CN1C[C@@H](NS(=O)(=O)N(C)C)C[C@@H]2c3cccc4c3c(cn4C)C[C@H]21
Return: class 0

Enquiry: Param item: O=C1CCC[C@@H]2[C@@H]3CCCN4CCC[C@H](CN12)[C@@H]34
Return: class 0

Enquiry: Input CN1CCc2cc3c(cc2C1O)OCO3 (configuration not stated)
Return: class 0

Enquiry: Also CC(CC(C(N)=O)(c1ccccc1)c1ccccc1)N(C)C (configuration not stated) , if possible.
Return: class 0

Enquiry: Here is the next compound: C[C@](O)(COc1ccc(C#N)cc1)C(=O)Nc1ccc(C#N)c(C(F)(F)F)c1
Return: class 1

Enquiry: Subsequent entry: Clc1ccc(C(c2ccc(Cl)cc2)n2cc[n+](CC(OCc3ccc(Cl)cc3Cl)c3ccc(Cl)cc3Cl)c2)cc1 (configuration not stated)
Return: class 1

* * *

Assay: growth inhibition of DIPG glioma cells, dose response, cell-based, SU-DIPG-XVII, MIPE5.0, CellTiter-Glo, qHTS (AID 1347060);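 as to AC50: cells exposed to compound for 48 hours before viability readout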
Settings: SU-DIPG-XVII viability, CellTiter-Glo ATP luminescence
Records with an inconclusive call do not appear. The source made the active and inactive calls. The limit is not given here; nearly all actives have AC50 up to about 26 µM.
// classify into T = active, F = inactive

Enquiry: I'd appreciate the recorded outcome for C[C@@H]1CC[C@@]2(OC1)O[C@H]1C[C@H]3[C@@H]4CC=C5C[C@@H](O[C@@H]6O[C@H](CO)[C@@H](O[C@@H]7O[C@@H](C)[C@H](O)[C@@H](O)[C@H]7O)[C@H](O)[C@H]6O[C@@H]6O[C@@H](C)[C@H](O)[C@@H](O)[C@H]6O)CC[C@]5(C)[C@H]4CC[C@]3(C)[C@H]1[C@@H]2C from this test.
Return: T

Enquiry: Try this compound too: N=C1NC(=O)N2CC12 (stereo unspecified)
Return: F

Enquiry: Proceed to C[C@@H]1O[C@@H](O[C@H]2C[C@@H](O)[C@]3(CO)[C@H]4[C@H](O)C[C@]5(C)[C@@H](C6=CC(=O)OC6)CC[C@]5(O)[C@@H]4CC[C@]3(O)C2)[C@H](O)[C@H](O)[C@H]1O
Return: T

Enquiry: // same read-out, input: C/C=C(\C)C(=O)N[C@@H](c1ccccc1)[C@@H](O)C(=O)O[C@H]1C[C@@]2(O)[C@@H](OC(=O)c3ccccc3)[C@@H]3[C@]4(OC(C)=O)CO[C@@H]4C[C@H](O)[C@@]3(C)C(=O)[C@H](OC(C)=O)C(=C1C)C2(C)C
Return: T

Enquiry: Also O=C(O)c1nn(Cc2ccc(Cl)cc2Cl)c2ccccc12 ?
Return: F

Enquiry: Do the same for C=C(C)[C@H]1Cc2c(ccc3c2O[C@@H]2COc4cc(OC)c(OC)cc4[C@@H]2C3=O)O1 please
Return: T

Enquiry: Repeat with N[C@@H](Cc1ccc(N(CCCl)CCCl)cc1)C(=O)O
Return: T

* * *

System: Neuropilin-2 / VEGF-C interaction (human)
Test: inhibitors of NRP2–VEGF-C binding, biochemical, microplate binding format, z-score (AID 743281)
Conditions: microplate NRP2/VEGF-C binding assay; stronger effect = lower value
Activity calls are given as the source filed them. The rule behind the calls is not given here.
Measurement name: z-score

>>> assay_value("C=C(C)CN1CC[C@]23c4c5ccc(O)c4O[C@H]2c2[nH]c4ccccc4c2CC3(O)C1C5 (some centres undefined)")
"inactive"
>>> assay_value("Clc1ccc(CO/N=C(\\Cn2ccnc2)c2ccc(Cl)cc2Cl)c(Cl)c1")
"inactive"
>>> assay_value("CCN(CC)CCOC(=O)C(O)(c1ccccc1)c1ccccc1")
"0.28 (inactive)"
>>> assay_value("CC12CC[C@H](O)CC1=CC[C@@H]1[C@@H]2CCC2(C)[C@H]1CC[C@]2(C)O (some centres undefined)")
"inactive"

* * *

Assay: liver-stage malaria parasite growth inhibition, primary screen, cell-based, HepG2, luciferase luminescence, HepG2 viability (AID 624349);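 also: 100% = mean of DMSO negative control wells on the same plate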
Conditions: P. berghei liver stage in HepG2, luciferase luminescence, concentration not given here; measured here: HepG2 viability without parasites
Measurement name: viability (%)
Numbers only, in %.

// worked examples, viability included
>>> assay_value("C[C@@H]1O[C@@H](O[C@@H]2C=C3CCC4C(CC[C@]5(C)[C@@H](c6ccc(=O)oc6)CC[C@]45O)[C@@]3(C)CC2)[C@H](O)[C@H](O)[C@H]1O (stereo not given in full)")
13.4
>>> assay_value("C=C[C@H]1CN2CCC1C[C@@H]2[C@@H](O)c1ccnc2ccccc12 (stereo not given in full)")
73.5
>>> assay_value("CCN(CC)CCOC(=O)C(O)(c1ccccc1)c1ccccc1")
95.8
>>> assay_value("CN1C[C@@H](NS(=O)(=O)N(C)C)C[C@@H]2c3cccc4c3c(cn4C)C[C@H]21")
102
>>> assay_value("Cc1ncc(CNC(=O)N(CCCl)N=O)c(N)n1")
90.7
>>> assay_value("CC[C@H]1C(=O)OC[C@@H]1Cc1cncn1C")
70.2

Give viability for each of the items listed below.
1. CC[C@@H](C)C(=O)O[C@H]1[C@H](O)[C@H]2[C@@H](CN3C[C@@H](C)CC[C@H]3[C@@]2(C)O)C2C[C@]34O[C@@]5(O)[C@@H](OC(=O)[C@](C)(O)CC)CC[C@@]3(C)[C@@H]5[C@@H](OC(C)=O)[C@@H](OC(C)=O)[C@H]4[C@@]21O (stereo not given in full)
2. O=C1OC2(c3cc(Br)c(O)cc3Oc3c2cc(Br)c(O)[c]3[Hg])c2ccccc21 (stereo not given)
3. CCCCOC(=O)c1ccccc1C(=O)OCCCC
4. CC[C@@]1(O)C[C@H](O[C@H]2C[C@H](N(C)C)[C@H](O)[C@H](C)O2)c2c(cc3c(c2O)C(=O)c2c(O)cccc2C3=O)[C@H]1C(=O)OC
5. CCNC1(c2cccs2)CCCCC1=O (stereo not given)
6. C[C@]12CC[C@H](OC3OC(O)C(O)C(O)C3O)C=C1CCC1C2CC[C@]2(C)[C@@H](c3ccc(=O)oc3)CC[C@]12O (stereo not given in full)
7. CN1C(=O)COc2c(C(=O)NC3CN4CCC3CC4)cc(Cl)cc21 (stereo not given)

Return:
1: 111; 2: 84.8; 3: 91.7; 4: 15.1; 5: 77; 6: 22.8; 7: 75.1

* * *

Assay: differential killing of epithelial or mesenchymal cells, primary screen, imaging, PC-3E GFP, TEM4-18 mCherry, co-culture (AID 1345086);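 also: cells exposed to compound for 72 h before imaging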
Conditions: imaging cell counts, measured here: epithelial PC-3E GFP cell survival, at 1 µM
Please assign F whenever normalised cell number is at or above 1, and T whenever it is below.

Here are 3 compounds together with their reported answers.
>>> category("CN1C2C[C@H](OC(=O)[C@H](CO)c3ccccc3)C[C@H]1[C@@H](O)C2")
"F"
>>> category("CN1CC(CNC(=O)OCc2ccccc2)CC2c3cccc4c3c(cn4C)CC21 (stereo unspecified)")
"F"
>>> category("O=C1c2ccccc2-c2cccc3cccc1c23")
"F"

Enquiry: Answer whether the compound COc1cc([C@@H]2c3cc4c(c(O)c3C[C@H]3COC(=O)[C@@H]32)OCO4)cc(OC)c1OC has normalised cell number strictly less than 1
Return: T
